Origin of measurements: patent US12473303B2

Exercise: state measured pIC50 for each of the compounds provided.
target: Human CDK7/CycH/MAT1 (Homo sapiens (Human), UniProt P50613); assay: Radiometric protein kinase assay (33PanQinase Activity Assay), CDK7; details: Table 1; ATP 3 μM
Sequence (P50613 whole entry): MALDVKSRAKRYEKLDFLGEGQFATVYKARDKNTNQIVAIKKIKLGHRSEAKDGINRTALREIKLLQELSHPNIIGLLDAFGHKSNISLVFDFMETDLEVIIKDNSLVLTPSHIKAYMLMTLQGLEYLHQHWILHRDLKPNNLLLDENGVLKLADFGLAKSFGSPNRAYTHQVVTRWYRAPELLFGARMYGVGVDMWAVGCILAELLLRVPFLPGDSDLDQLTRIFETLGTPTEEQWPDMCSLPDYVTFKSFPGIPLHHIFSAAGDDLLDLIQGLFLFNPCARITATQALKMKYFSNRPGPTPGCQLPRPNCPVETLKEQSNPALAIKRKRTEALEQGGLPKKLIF
Sequence (P51946 whole entry partner): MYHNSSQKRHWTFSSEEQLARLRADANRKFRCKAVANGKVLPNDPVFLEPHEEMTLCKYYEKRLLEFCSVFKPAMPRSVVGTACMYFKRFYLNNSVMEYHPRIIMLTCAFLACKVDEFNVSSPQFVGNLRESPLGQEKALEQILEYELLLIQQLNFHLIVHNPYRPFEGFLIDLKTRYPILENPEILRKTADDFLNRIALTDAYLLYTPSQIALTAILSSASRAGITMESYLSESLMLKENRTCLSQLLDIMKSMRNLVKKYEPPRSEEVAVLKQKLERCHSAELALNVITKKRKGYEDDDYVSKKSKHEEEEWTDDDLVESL
Sequence (P51948 whole entry partner): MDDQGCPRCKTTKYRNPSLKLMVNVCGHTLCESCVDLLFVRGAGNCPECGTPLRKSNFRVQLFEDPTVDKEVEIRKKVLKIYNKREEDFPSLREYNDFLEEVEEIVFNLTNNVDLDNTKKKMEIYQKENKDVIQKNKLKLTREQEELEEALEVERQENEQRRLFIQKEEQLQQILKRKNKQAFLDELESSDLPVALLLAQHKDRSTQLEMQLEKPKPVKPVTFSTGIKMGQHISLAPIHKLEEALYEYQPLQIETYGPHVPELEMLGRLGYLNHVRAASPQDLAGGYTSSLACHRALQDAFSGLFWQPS
Numbers only, as −log10 of the molar value.

Could you tell me pIC50 for each of these compounds? They are listed below.
1. Cc1c(CNc2cc(NC[C@H]3CCNC[C@@H]3O)nc3c(C(C)C)cnn23)nc2ccccn12 [H-APPAMP-017]
2. CCc1cnn2c(NCc3cn4cccc(C)c4n3)cc(NC[C@H]3CCNC[C@@H]3O)nc12 [H-APPAMP-026]
3. COc1cccc2nc(CNc3cc(NC[C@H]4CCNC[C@@H]4O)nc4c(C5CC5)cnn34)cn12 [H-APPAMP-027]
4. CC(C)c1cnn2c(NCc3nc4ccccn4c3C3CC3)cc(NC[C@H]3CCNC[C@@H]3O)nc12 [H-APPAMP-024]
5. CCc1cnn2c(NCc3cn4cc(C5CC5)cc(C(F)(F)F)c4n3)cc(NC[C@H]3CCNC[C@@H]3O)nc12 [H-APPAMP-038]

Reply:
1. 7.40
2. 7.16
3. 6.90
4. 6.55
5. 6.12

Dear reader, for each entry below, please note its pIC50.
1. CC(C)c1cnn2c(NCc3cn4cc(F)ccc4n3)cc(NC[C@H]3CCNC[C@@H]3O)nc12 [H-APPAMP-011]
2. O[C@H]1CNCC[C@@H]1CNc1cc(NCc2cn3cc(C4CC4)cc(C(F)(F)F)c3n2)n2ncc(C3CC3)c2n1 [H-APPAMP-042]
3. Cc1cccn2cc(CNc3cc(NC[C@H]4CCNC[C@@H]4O)nc4c(C5CC5)cnn34)nc12 [H-APPAMP-022]
4. CC(C)c1cnn2c(NCc3cn4cc(Cl)ccc4n3)cc(NC[C@H]3CCNC[C@@H]3O)nc12 [H-APPAMP-012]
5. O[C@H]1CNCC[C@@H]1CNc1cc(NCc2cn3c(C4CC4)cccc3n2)n2ncc(C3CC3)c2n1 [H-APPAMP-030]

Reply:
[6.77, 6.01, 6.21, 6.67, 6.56]

For every listed record, write down its pIC50.
1. Cc1cccc2nc(CNc3cc(NC[C@H]4CCNC[C@@H]4O)nc4c(C(C)C)cnn34)cn12 [H-APPAMP-010]
2. CC(C)c1cnn2c(NCc3nc4ccccn4c3C(F)(F)F)cc(NC[C@H]3CCNC[C@@H]3O)nc12 [H-APPAMP-023]
3. CCc1cnn2c(NCc3cn4c(C(F)(F)F)cccc4n3)cc(NC[C@H]3CCNC[C@@H]3O)nc12 [H-APPAMP-034]
4. Cc1ccn2c(CNc3cc(NC[C@H]4CCNC[C@@H]4O)nc4c(C(C)C)cnn34)c(C)nc2c1 [H-APPAMP-015]

Reply:
6.62
6.99
6.82
8.52

----------
biological target: Human CDK12 wt/CycK (Homo sapiens (Human)); assay: Radiometric protein kinase assay (33PanQinase Activity Assay), CDK12; assay type: biochemical; details: Table 1; ATP 0.3 μM; read-out: CDK12 IC50
Sequence (Q9NYV4 whole entry): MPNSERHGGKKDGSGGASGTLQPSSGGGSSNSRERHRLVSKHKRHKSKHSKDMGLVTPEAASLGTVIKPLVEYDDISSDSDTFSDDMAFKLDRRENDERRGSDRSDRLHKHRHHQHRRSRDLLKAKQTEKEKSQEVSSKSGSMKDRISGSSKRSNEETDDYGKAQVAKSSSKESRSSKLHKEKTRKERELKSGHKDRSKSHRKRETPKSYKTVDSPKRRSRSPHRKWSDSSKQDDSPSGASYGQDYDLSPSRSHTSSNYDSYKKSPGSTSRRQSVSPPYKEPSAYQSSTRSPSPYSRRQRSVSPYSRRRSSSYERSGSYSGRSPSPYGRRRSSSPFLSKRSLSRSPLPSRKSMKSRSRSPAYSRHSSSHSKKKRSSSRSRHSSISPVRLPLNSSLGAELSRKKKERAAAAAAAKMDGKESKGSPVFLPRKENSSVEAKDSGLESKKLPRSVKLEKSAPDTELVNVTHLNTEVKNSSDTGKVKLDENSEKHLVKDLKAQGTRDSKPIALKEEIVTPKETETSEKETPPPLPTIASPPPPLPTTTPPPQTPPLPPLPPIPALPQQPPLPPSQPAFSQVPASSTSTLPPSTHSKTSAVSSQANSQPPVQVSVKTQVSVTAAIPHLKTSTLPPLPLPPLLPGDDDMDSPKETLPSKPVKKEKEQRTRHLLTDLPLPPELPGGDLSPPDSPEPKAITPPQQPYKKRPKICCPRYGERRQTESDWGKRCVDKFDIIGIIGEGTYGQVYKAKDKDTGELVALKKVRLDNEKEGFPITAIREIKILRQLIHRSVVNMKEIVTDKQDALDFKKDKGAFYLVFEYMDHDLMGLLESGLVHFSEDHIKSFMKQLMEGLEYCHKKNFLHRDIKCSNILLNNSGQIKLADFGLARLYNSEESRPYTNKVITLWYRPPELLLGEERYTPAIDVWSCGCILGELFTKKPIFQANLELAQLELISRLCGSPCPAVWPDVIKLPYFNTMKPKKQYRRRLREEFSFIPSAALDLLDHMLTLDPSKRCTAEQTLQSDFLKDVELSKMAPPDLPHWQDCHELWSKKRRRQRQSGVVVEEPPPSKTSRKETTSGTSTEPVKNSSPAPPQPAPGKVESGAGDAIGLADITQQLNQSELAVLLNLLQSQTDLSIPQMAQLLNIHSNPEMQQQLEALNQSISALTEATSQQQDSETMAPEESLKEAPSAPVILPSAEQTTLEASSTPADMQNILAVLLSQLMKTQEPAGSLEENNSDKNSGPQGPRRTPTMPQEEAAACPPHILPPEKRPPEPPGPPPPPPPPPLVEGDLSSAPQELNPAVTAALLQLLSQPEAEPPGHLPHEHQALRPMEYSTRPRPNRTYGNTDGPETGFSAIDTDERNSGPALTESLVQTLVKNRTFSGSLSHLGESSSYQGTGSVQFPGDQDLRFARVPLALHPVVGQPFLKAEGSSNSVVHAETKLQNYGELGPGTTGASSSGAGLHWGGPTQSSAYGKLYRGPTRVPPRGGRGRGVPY
Sequence (O75909 whole entry partner): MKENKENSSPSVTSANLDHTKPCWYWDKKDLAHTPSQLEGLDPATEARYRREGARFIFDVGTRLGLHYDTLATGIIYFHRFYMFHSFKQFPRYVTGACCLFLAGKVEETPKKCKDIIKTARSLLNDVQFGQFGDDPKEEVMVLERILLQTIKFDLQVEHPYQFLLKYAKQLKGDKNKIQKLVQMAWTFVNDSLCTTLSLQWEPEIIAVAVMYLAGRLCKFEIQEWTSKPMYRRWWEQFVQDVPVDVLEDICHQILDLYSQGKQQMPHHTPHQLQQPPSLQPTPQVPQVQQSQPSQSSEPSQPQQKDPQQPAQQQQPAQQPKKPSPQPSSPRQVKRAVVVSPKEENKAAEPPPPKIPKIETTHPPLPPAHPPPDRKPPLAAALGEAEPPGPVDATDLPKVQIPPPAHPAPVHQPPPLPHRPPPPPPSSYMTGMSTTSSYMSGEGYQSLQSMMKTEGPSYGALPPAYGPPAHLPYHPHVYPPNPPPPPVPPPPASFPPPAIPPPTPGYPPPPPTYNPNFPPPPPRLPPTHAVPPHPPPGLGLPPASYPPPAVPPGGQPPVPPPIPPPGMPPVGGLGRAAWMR
recorded endpoint: IC50 (nM)
Answers are plain numbers, in nM.

Examples with their reported IC50 follow.
[
  {
    "given smiles": "O[C@H]1CNCC[C@@H]1CNc1cc(NCc2cn3c(C(F)(F)F)cccc3n2)n2ncc(C3CC3)c2n1",
    "IC50 (nM)": 208
  },
  {
    "given smiles": "O[C@H]1CNCC[C@@H]1CNc1cc(NCc2cn3nc(C4CC4)ccc3n2)n2ncc(C3CC3)c2n1",
    "IC50 (nM)": 37
  }
]

Task item: Name the reported IC50 value associated with the compound CC(C)c1cnn2c(NCc3ccc4c(c3)ncn4C)cc(NC[C@H]3CCNC[C@@H]3O)nc12
Reply: 26.9
